Listed here are compounds together with their documented ALT (U/L).
# test.protocol: Tolerability in rats: liver enzyme panel 24 hours post dose
# Assay type: in vivo, rat
# experimental.setup: Sprague Dawley female rats, 6 mg/kg, serum
measured.quantity: ALT (U/L)

compound="CCCCC/C=C\\C/C=C\\CCCCCCCC(=O)OCC(COC(=O)CCCCCCC/C=C\\C/C=C\\CCCCC)OC(=O)CCC(CCCCCCCC)OC(=O)NCCN(C)CC (stereo not shown) [Compound 34]" test_result=179.6
compound="CCCCC/C=C\\C/C=C\\CCCCCCCC(=O)OCC(COC(=O)CCC(OCCCCCCCC)OCCCCCCCC)COC(=O)OCCCN(CC)CC (stereo not shown) [Compound 49, reference compound]" test_result=408.5
compound="CCCCC/C=C\\C/C=C\\CCCCCCCC(=O)OCC(COC(=O)CCCCCCC/C=C\\C/C=C\\CCCCC)OC(=O)CCC(CCCCCC)OC(=O)OCCCN1CCCC1 (stereo not shown) [Compound 45]" test_result=163.2
compound="CCCCC/C=C\\C/C=C\\CCCCCCCC(=O)OCC(COC(=O)CCCCCCC/C=C\\C/C=C\\CCCCC)OC(=O)CCC(CCCCCC)OC(=O)NCCN1CCCC1 (racemic) [Compound 50]" test_result=250.8
